# EXPERIMENTAL SYSTEM: Bcl-2-like protein 10 (Homo sapiens)
# PROTOCOL DETAILS: TR3 peptide-Bcl-B binding displacers, biochemical primary FP assay, phenotype converters (AID 1240);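 also: 0% = Bcl-B with tracer peptide and DMSO and 100% = tracer peptide lacking Bcl-B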
# MEASUREMENT SETUP: GST-Bcl-B / FITC-TR3 peptide fluorescence polarization; stronger effect = higher value; compound at 3.75 mg/L
The whole screen tested about 50,000 compounds, of which about 800 (1.6%) showed an effect of 50% or more. This excerpt belongs to a sample that is enriched for strong results.
Recorded measurements of displacement, one per entry
Phrase the answer as number then unit, nothing more needed.

Known results for molecules:
MOLECULE | MEAS VALUE
Cc1ccc(-c2csc(N)c2C(=O)OC(C)C)cc1 | -1.9%
O=C(c1nn2c(C(F)(F)F)cc(-c3ccco3)nc2c1Cl)N1CCN(Cc2ccccc2)CC1 | 1.1%
CCOC(=O)C1=C(C)N=c2s/c(=C\c3ccc4c(c3)OCO4)c(=O)n2C1c1ccc(C)cc1 (centres undefined) | -7.1%

Switching to the query record.
response.value for COC(=O)c1ccc(C(=O)OC)c(NC(=O)/C=C/c2ccc(Cl)cc2)c1 (field: displacement) = -6.4%

---

# EXPERIMENTAL SYSTEM: Bcl-2-like protein 10 (Homo sapiens)
# PROTOCOL DETAILS: TR3 peptide-Bcl-B binding displacers, biochemical primary FP assay, phenotype converters (AID 1240);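 also: 0% = Bcl-B with tracer peptide and DMSO and 100% = tracer peptide lacking Bcl-B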
# MEASUREMENT SETUP: GST-Bcl-B / FITC-TR3 peptide fluorescence polarization; stronger effect = higher value; compound at 3.75 mg/L
About 800 (1.6%) of roughly 50,000 compounds showed an effect of 50% or more. The sample as a whole holds a higher share of strong results than the screen did.
READOUT KIND: displacement

MOLECULE | MEAS VALUE
CCOc1ccc(NC(=O)/C=C/c2ccc(Cl)cc2)cc1 | 10.1%
O=C(O)CCC(=O)Nc1ccc(F)cc1 | -7.3%
CCCC(=O)NC(c1ccco1)c1c(O)ccc2ccccc12 (configuration not stated) | 6.6%
O=C(Cc1cccs1)NCC1CCCO1 (configuration not stated) | 14.5%
C[C@@H]1O[C@@H](Nc2ccc(Cl)cc2[N+](=O)[O-])[C@H](O)[C@H](O)[C@H]1O | 54.7%
N#C/C(=C\c1ccc(C(=O)O)cc1)C(=O)NCC1CCCO1 (configuration not stated) | 0%

response.value for CN(C)CCCNC(=O)/C=C/c1ccc(Cl)cc1 (field: displacement) = 14%

response.value for O=C1N/C(=N\N=C\c2ccccc2O)SC1Cc1ccc(Cl)cc1 (configuration not stated) (field: displacement) = 8.7%

response.value for CCOc1ccc(Br)cc1/C=N\NC(=O)c1cc(C)[nH]n1 (field: displacement) = -2.6%

response.value for Cc1onc(-c2c(Cl)cccc2Cl)c1C(=O)N1CCN(Cc2ccccc2)CC1 (field: displacement) = 0.2%

response.value for COc1cc(NC(=O)CCCOc2ccccc2)c(OC)cc1Cl (field: displacement) = 71.9%

response.value for Cc1cc(N(C)/N=C/c2ccccc2Cl)nc(-c2ccccc2O)n1 (field: displacement) = 5.1%

---

Recorded measurements of displacement, one per entry
# EXPERIMENTAL SYSTEM: Bcl-2-like protein 10 (Homo sapiens)
# PROTOCOL DETAILS: TR3 peptide-Bcl-B binding displacers, biochemical primary FP assay, phenotype converters (AID 1240);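 also: 0% = Bcl-B with tracer peptide and DMSO and 100% = tracer peptide lacking Bcl-B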
# MEASUREMENT SETUP: GST-Bcl-B / FITC-TR3 peptide fluorescence polarization; stronger effect = higher value; compound at 3.75 mg/L
The whole screen tested about 50,000 compounds, of which about 800 (1.6%) showed an effect of 50% or more. The sample as a whole holds a higher share of strong results than the screen did.
Phrase the answer as number then unit, nothing more needed.

response.value for CCOc1cc(/C=c2/sc3nc4ccccc4n3c2=O)cc(I)c1OCC (field: displacement) = 77.3%

response.value for COc1ccc(C(=O)N2CCN(c3cccc(C)c3C)CC2)c(OC)c1 (field: displacement) = -4.4%

response.value for COc1cc([N+](=O)[O-])ccc1-c1ccc(/C=C2\C(=O)NC(=O)N(c3ccc(C)c(C)c3)C2=O)o1 (field: displacement) = 75.5%

response.value for CCOc1ccc2oc(-c3ccccc3)c(C(=O)O)c2c1 (field: displacement) = 5.4%
